The reported measurements were obtained from FireProtDB (doi:10.1093/protein/12.3.251).

B1: Endo-1,4-beta-xylanase A, P26514 (parent)
chain: MGSYALPRSGVRRSIRVLLLALVVGVLGTATALIAPPGAHAAESTLGAAAAQSGRYFGTAIASGRLSDSTYTSIAGREFNMVTAENEMKIDATEPQRGQFNFSSADRVYNWAVQNGKQVRGHTLAWHSQQPGWMQSLSGSALRQAMIDHINGVMAHYKGKIVQWDVVNEAFADGSSGARRDSNLQRSGNDWIEVAFRTARAADPSAKLCYNDYNVENWTWAKTQAMYNMVRDFKQRGVPIDCVGFQSHFNSGSPYNSNFRTTLQNFAALGVDVAITELDIQGAPASTYANVTNDCLAVSRCLGITVWGVRDSDSWRSEQTPLLFNNDGSKKAAYTAVLDALNGGDSSEPPADGGQIKGVGSGRCLDVPDASTSDGTQLQLWDCHSGTNQQWAATDAGELRVYGDKCLDAAGTSNGSKVQIYSCWGGDNQKWRLNSDGSVVGVQSGLCLDAVGNGTANGTLIQLYTCSNGSNQRWTRT

variants of: B1; conditions: Streptomyces lividans; pH 6; Thermal; CD; sodium phosphate 10 mM; structure 1XAS; whole UniProt chain shown
quantity: change of melting temperature, mutant - wild type (higher = more stable) (°C)
# unit: °C | format: bare number

In: For the variant `Y213F` , give its measured change of melting temperature, mutant - wild type (higher = more stable) value.
Out: -0.9

In: Query change of melting temperature, mutant - wild type (higher = more stable) for `W307H`
Out: -7.3

In: Determine its reported change of melting temperature, mutant - wild type (higher = more stable): `Y213S`
Out: 1.6

In: Retrieve change of melting temperature, mutant - wild type (higher = more stable) measured for `W315H` and print it.
Out: 0.2

In: Provide one value: measured change of melting temperature, mutant - wild type (higher = more stable) of `W307A`
Out: -4.7

In: Provide only the value of recorded change of melting temperature, mutant - wild type (higher = more stable) for `W307F`
Out: -3.3

In: State its change of melting temperature, mutant - wild type (higher = more stable) for this variant: `W126H`
Out: -1

In: Let me know recorded change of melting temperature, mutant - wild type (higher = more stable) for `Y213A` , thanks.
Out: -5

In: // fetch change of melting temperature, mutant - wild type (higher = more stable) given entry `W315A`
Out: 4.1

In: For `W126A` , write its change of melting temperature, mutant - wild type (higher = more stable).
Out: 2

In: Report change of melting temperature, mutant - wild type (higher = more stable) for `W315F`
Out: 0.8

In: Kindly indicate its recorded change of melting temperature, mutant - wild type (higher = more stable). Item: `W126F`
Out: -4
